Data provenance is PubChem BioAssay AID1159580.

# measurement-description: chemical genetic growth profiling, strain panel (AID 1159580);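 note: tested at 20 µM; growth read once vehicle control cultures reached saturation at 30 °C; 1 = growth at the plate median or of vehicle wells; lower values mean less growth of the strain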
# experimental-setup: S. cerevisiae deletion strains, growth OD, locus YOR184W, strain ser1, active compounds read low
The whole screen tested about 5,500 compounds, of which about 2,000 (36%) were called active. Not shown: some 18% with an inconclusive outcome. Some of the results follow.
measurement-name: normalized growth
Answer field: number only, no words.

Identify measured normalized growth associated with C=C(C)/C=C1/C=CC(=O)C(C)=C1 0.0806

Complete the entry with normalized growth for CC[C@@H](CO)NCCN[C@@H](CC)CO 1.03

Supply measured normalized growth of CCC(C(N)=O)c1ccccc1 (stereo not drawn) in your reply. 1

Answer with reported normalized growth of CCCCCCCCCCCCC[N+](C)(C)Cc1ccccc1 0.0779

Quick one: give measured normalized growth for O=C(O)c1ccccc1OP(=O)(O)O 1

Identify normalized growth associated with the molecule N#Cc1c(Cl)c(Cl)c(Cl)c(C#N)c1Cl 0.965

Name the recorded normalized growth of the item Cn1cc[nH]c1=S in your answer. 0.974

Return value of normalized growth for input CCN(CC)C(=S)SSC(=S)N(CC)CC , no commentary. 0.0638
